B1: ATGL (PNPLA2, patatin-like phospholipase domain-containing protein 2), human, full length / CGI-58 (ABHD5, 1-acylglycerol-3-phosphate O-acyltransferase ABHD5), human (parent)
chain 1: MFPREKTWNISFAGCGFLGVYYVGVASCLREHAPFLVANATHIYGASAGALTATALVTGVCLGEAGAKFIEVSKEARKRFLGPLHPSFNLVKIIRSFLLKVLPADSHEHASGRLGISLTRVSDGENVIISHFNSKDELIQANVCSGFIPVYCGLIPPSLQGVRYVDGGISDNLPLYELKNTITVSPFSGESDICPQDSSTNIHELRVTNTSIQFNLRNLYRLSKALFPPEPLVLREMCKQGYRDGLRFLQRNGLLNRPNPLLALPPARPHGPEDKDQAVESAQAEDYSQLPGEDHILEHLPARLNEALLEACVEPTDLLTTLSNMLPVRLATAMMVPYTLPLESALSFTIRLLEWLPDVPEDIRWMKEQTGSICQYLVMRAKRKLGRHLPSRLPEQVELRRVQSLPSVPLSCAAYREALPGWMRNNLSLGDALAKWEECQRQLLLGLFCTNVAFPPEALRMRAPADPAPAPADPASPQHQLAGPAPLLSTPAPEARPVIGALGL
chain 2: MAAEEEEVDSADTGERSGWLTGWLPTWCPTSISHLKEAEEKMLKCVPCTYKKEPVRISNGNKIWTLKFSHNISNKTPLVLLHGFGGGLGLWALNFGDLCTNRPVYAFDLLGFGRSSRPRFDSDAEEVENQFVESIEEWRCALGLDKMILLGHNLGGFLAAAYSLKYPSRVNHLILVEPWGFPERPDLADQDRPIPVWIRALGAALTPFNPLAGLRIAGPFGLSLVQRLRPDFKRKYSSMFEDDTVTEYIYHCNVQTPSGETAFKNMTIPYGWAKRPMLQRIGKMHPDIPVSVIFGARSCIDGNSGTSIQSLRPHSYVKTIAILGAGHYVYADQPEEFNQKVKEICDTVD

Variants of: B1
Experiment: LUMIER: Protein A-ATGL variant and firefly luciferase-partner co-expressed in HEK293T, lysates immunoprecipitated on IgG-coated plates, co-precipitated partner measured as luciferase luminescence
Details: with CGI-58 (ABHD5, 1-acylglycerol-3-phosphate O-acyltransferase ABHD5), transient co-transfection, IgG-coated LUMITRAC plates, 2 h at 4 °C, three PBS washes, Bright-Glo luciferase reagent, triplicates per assay, two …, parent: 0.32, not graded, scale: log2 fold change of co-immunoprecipitated luminescence relative to wild-type ATGL within each experiment
1 (yes) if screen value is below -0.09. 0 (no) if not; exact matches included in 0 (no).

mutation_annotation="chain 1 K275A" class_assignment="1 (yes)"
mutation_annotation="chain 1 V328A" class_assignment="1 (yes)"
mutation_annotation="chain 1 E125L" class_assignment="1 (yes)"

Task: Quick check: screen value of chain 1 R95L under -0.09?
Output: 1 (yes)

Task: // same read-out, input: chain 1 V127L
Output: 1 (yes)

Task: // same read-out, input: chain 1 A104E
Output: 0 (no)

Task: // same read-out, input: chain 1 A453E
Output: 0 (no)

Task: // same read-out, input: chain 1 S87E
Output: 0 (no)

Task: // same read-out, input: chain 1 Y415A
Output: 0 (no)

Task: // same read-out, input: chain 1 G153K
Output: 1 (yes)
